B1: CPEB3 Ribozyme (parent)
chain: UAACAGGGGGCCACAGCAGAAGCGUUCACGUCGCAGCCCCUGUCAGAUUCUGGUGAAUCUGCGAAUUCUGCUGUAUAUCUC

- Variants of: B1
- Assay comment: self-cleavage, relative activity (ratio to wild type); higher = more cleavage; in vitro, sequencing
Rule: self-cleavage of 0.3 or more gives True; anything lower gives False.

>>> answer_label("C11U A45G")
"False"
>>> answer_label("C23U C37U")
"False"
>>> answer_label("U60C U78C")
"True"
>>> answer_label("C39G A57G")
"False"
>>> answer_label("C62G U76C")
"False"
>>> answer_label("G63U C79U")
"True"
>>> answer_label("A3U A15G")
"True"
>>> answer_label("C23U A45U")
"False"
>>> answer_label("C32U U69C")
"False"
>>> answer_label("A57G C59G")
"False"
>>> answer_label("U41A U67G")
"False"
>>> answer_label("G46C U60C")
"False"
>>> answer_label("A21G G30A")
"True"
>>> answer_label("U48A A75G")
"True"
>>> answer_label("U26C")
"True"
>>> answer_label("C4U G42A")
"True"
>>> answer_label("U41A U76C")
"False"
>>> answer_label("C12A C68G")
"True"
>>> answer_label("A18G U72G")
"False"
>>> answer_label("U54A A65G")
"True"
>>> answer_label("C62U U69A")
"True"
>>> answer_label("A5G G73A")
"True"
>>> answer_label("U25A U66A")
"True"
>>> answer_label("G24C U43A")
"True"
>>> answer_label("G10U C38G")
"False"
>>> answer_label("U25C G55U")
"False"
>>> answer_label("A13G G52A")
"True"
>>> answer_label("G9C U54C")
"True"
>>> answer_label("A28U U43C")
"True"
>>> answer_label("G70A U76A")
"True"
>>> answer_label("A15U G55U")
"True"
>>> answer_label("C38U C39U")
"False"
>>> answer_label("C4U U25G")
"True"
>>> answer_label("A28U C81A")
"True"
>>> answer_label("G10C A75G")
"False"
>>> answer_label("U54A A75G")
"True"
>>> answer_label("G33C U48C")
"True"
>>> answer_label("A47U U69C")
"True"
>>> answer_label("G16U")
"True"
>>> answer_label("U49G U69A")
"True"
>>> answer_label("G9A U76C")
"True"
>>> answer_label("A2G C11U")
"True"
>>> answer_label("A20G G61U")
"True"
>>> answer_label("A56U C79A")
"True"
>>> answer_label("U26A")
"True"
>>> answer_label("U41A A57G")
"False"
